Hey, just so you know, these numbers are from patent US20250195521A1.

Could you please report measured IC50 for the items listed next?
targetEntity: NRAS G12C binding to BRAF RBD (Homo sapiens (Human), UniProt P01111+P62937, G12C)
Sequence (P01111 whole entry G12C): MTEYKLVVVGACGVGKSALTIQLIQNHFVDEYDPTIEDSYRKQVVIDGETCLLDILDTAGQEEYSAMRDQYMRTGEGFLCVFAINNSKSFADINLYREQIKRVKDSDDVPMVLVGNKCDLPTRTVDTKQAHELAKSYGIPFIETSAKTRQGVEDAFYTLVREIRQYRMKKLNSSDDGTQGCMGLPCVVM
Sequence (P62937 whole entry): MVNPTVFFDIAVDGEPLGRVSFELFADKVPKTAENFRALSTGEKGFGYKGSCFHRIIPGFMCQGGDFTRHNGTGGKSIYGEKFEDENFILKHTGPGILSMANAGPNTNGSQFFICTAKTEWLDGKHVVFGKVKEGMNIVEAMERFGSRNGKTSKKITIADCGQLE
procedureText: Ras-Raf disruption/FRET/MOA assay, NRAS G12C

Examples with their reported IC50 follow.
molecule	targetEntity	IC50
C=CC(=O)N(C)CCN1CCN(C(=O)N(C)[C@H](C(=O)N[C@H]2C[n+]3cccc(c3)-c3ccc4c(c3)c(c(-c3cccnc3[C@H](C)OC)n4CC)CC(C)(C)COC(=O)[C@@H]3CCCN(N3)C2=O)C(C)C)CC1 [Compound A539]	NRAS G12C binding to BRAF RBD (Homo sapiens (Human), UniProt P01111+P62937, G12C)	100 to 1000 nM
C=CC(=O)N1CC[C@H](C(=O)N(C)[C@H](C(=O)N[C@H]2Cc3cc(O)cc(c3)-c3ccc4c(c3)c(c(-c3cccc(CN(C)C)c3)n4CC)CC(C)(C)COC(=O)[C@@H]3CCCN(N3)C2=O)C(C)C)C1 [Compound A106]	NRAS G12C binding to BRAF RBD (Homo sapiens (Human), UniProt P01111+P62937, G12C)	1000 to 10000 nM
CC[C@@H](COC1CN(C(=O)C#CC(C)(C)N(C)C)C1)C(=O)N[C@H]1Cc2nc(cs2)-c2ccc3c(c2)c(c(-c2cccnc2[C@H](C)OC)n3CC)CC(C)(C)COC(=O)[C@@H]2CCCN(N2)C1=O (atropisomer, axis not shown) [Compound A705]	NRAS G12C binding to BRAF RBD (Homo sapiens (Human), UniProt P01111+P62937, G12C)	< 10 nM
CCn1c(-c2cccnc2[C@H](C)OC)c2c3cc(ccc31)-c1cc(C(F)F)cc(n1)C[C@H](NC(=O)[C@H](C1CCCC1)N(C)C(=O)[C@H]1CCN(C(=O)C#CC(C)(C)N3CCC3)C1)C(=O)N1CCC[C@H](N1)C(=O)OCC(C)(C)C2 [Compound A456]	NRAS G12C binding to BRAF RBD (Homo sapiens (Human), UniProt P01111+P62937, G12C)	10 to 100 nM

Report IC50 for every entry below.
1. CCn1c(-c2cccnc2COC)c2c3cc(ccc31)-c1cc(C)cc(c1)C[C@H](NC(=O)[C@@H](C(C)C)N(C)C(=O)[C@H]1CCN(C(=O)C#CCN(C)C)C1)C(=O)N1CCC[C@H](N1)C(=O)OCC(C)(C)C2 [Compound A156]
2. CCn1c(-c2cccnc2COC)c2c3cc(ccc31)-c1cc(O)cc(c1)C[C@H](NC(=O)[C@H](C(C)C)N(C)C(=O)[C@H]1CCN(C(=O)/C=C\CN(C)C)C1)C(=O)N1CCC[C@H](N1)C(=O)OCC(C)(C)C2 [Compound A161]

## Output
100 to 1000 nM
100 to 1000 nM
